Catalogue of compounds with associated pKi
test system: 5HT6 (Homo sapiens, UniProt P50406)
Construct: expressed in transfected cells; host or cells: HEK293
Sequence (P50406 whole entry, species assumed): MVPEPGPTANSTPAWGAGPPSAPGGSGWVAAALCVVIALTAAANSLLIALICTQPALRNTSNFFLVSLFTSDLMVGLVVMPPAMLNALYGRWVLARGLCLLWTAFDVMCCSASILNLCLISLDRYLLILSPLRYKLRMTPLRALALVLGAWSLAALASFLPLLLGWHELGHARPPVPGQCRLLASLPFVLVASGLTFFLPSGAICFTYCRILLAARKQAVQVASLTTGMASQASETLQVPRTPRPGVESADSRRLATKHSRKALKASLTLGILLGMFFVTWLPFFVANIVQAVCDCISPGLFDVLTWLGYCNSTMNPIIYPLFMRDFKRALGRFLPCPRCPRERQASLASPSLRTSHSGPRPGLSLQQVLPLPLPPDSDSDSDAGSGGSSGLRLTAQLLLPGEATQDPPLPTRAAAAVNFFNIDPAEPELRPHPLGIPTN
assay overview: radioligand binding to serotonin receptor, cell membrane sample, Ki by Cheng-Prusoff
pKi: −log10 of the molar value.
reported metric: pKi

* CN(C)C1COc2c(C#N)ccc3[nH]cc(c23)C1 (centres unmarked) | 9.00
* CN(C)C1COc2c(Br)ccc3[nH]cc(c23)C1 (centres unmarked) | 7.21
* O=S(=O)(c1ccccc1)n1cc2c3c(cccc31)OCC(N1CCCC1)C2 (centres unmarked) | 7.19
* CN(C)C1COc2cccc3c2c(cn3S(=O)(=O)c2cccc3ccccc23)C1 (centres unmarked) | 9.31
* CN(C)C1COc2c(C=NO)ccc3[nH]cc(c23)C1 (centres unmarked) | 7.11

###

test system: 5HT6 (Homo sapiens, UniProt P50406)
Construct: expressed in transfected cells; host or cells: HEK293
assay overview: radioligand binding to serotonin receptor, cell membrane sample, Ki by Cheng-Prusoff
Description: A mixture of radioactive ligands and some cardinal numbers of test compounds was incubated with a sample of cell membrane, which was prepared from brain of rats or HEK293 cells, which expressed the receptor, under the following conditions. Then, the sample was filtered by suction on a Whatman GF/C. Radioactivity on the filter was encountered by the use of a liquid scintillation counter. […]
So basically: is Ki under 3 nM? Then yes (1). Not under? Then no (0).

* COc1cccc(S(=O)(=O)n2cc3c4c(cccc42)OCC(N(C)C)C3)c1 (centres unmarked) [Compound 20-24] | no (0)
* CN(C)C1COc2cccc3c2c(cn3S(=O)(=O)c2cccc(Br)c2)C1 (centres unmarked) [Compound 20-12] | yes (1)
* CNC1COc2cccc3[nH]cc(c23)C1 (centres unmarked) [Compound 19-2] | no (0)
* COc1ccc(S(=O)(=O)n2cc3c4c(cccc42)OCC(N(C)C)C3)cc1 (centres unmarked) [Compound 20-14] | no (0)
* CN(C)C1COc2cccc3c2c(cn3S(=O)(=O)c2ccccc2Br)C1 (centres unmarked) [Compound 20-13] | no (0)

###

Where a name gives a salt, the structure may show the parent alone.
Readings of melting point for the listed molecules
reported metric: melting point

- CNC1COc2cccc3[nH]cc(c23)C1 (centres unmarked) (as salt: oxalate): 112 to 116 °C
- CN(C)C1COc2cccc3c2c(cn3S(=O)(=O)c2ccc(Br)cc2)C1 (centres unmarked) (as salt: oxalate): 147 to 150 °C (dec.)
- c1cc2c3c(c[nH]c3c1)CC(NC1CC1)CO2 (centres unmarked): 130 to 131 °C
- N[C@@H]1COc2cccc3[nH]cc(c23)C1: 202 to 203 °C
- CN(C)C1COc2cccc3c2c(cn3S(=O)(=O)c2cc(Cl)ccc2Cl)C1 (centres unmarked) (as salt: oxalate): 161 to 163 °C (dec.)
- CN(C)C1COc2c(Br)ccc3[nH]cc(c23)C1 (centres unmarked): 142 to 143 °C
- CN(C)C1COc2cccc3c2c(cn3S(=O)(=O)c2ccc(Cl)s2)C1 (centres unmarked) (as salt: oxalate): 154 to 156 °C (dec.)
- CN(C)C1COc2cccc3c2c(cn3S(=O)(=O)c2ccc(-c3ccon3)s2)C1 (centres unmarked) (as salt: oxalate): 113 to 115 °C (dec.)
